compounds and their reported melting point
Where a name gives a salt, the structure may show the parent alone.

Item Cc1ccc2c(c1)CSC(N(C)C1CCN(CCCOCCc3ccc(F)cc3)CC1)=N2.O=C(O)/C=C/C(=O)O has what recorded melting point? 169 to 172 °C

Item CN(C1=Nc2ccccc2CS1)C1CCN(CCOCCc2ccc(F)cc2)CC1 (as salt: fumarate) [Example 9] has what recorded melting point? 145 to 146 °C

Item CN(C1=Nc2ccccc2CS1)C1CCN(CCOCc2ccccc2)CC1.O=C(O)/C=C/C(=O)O has what recorded melting point? 166 to 167 °C

* * *

Measurement Name: melting point (°C)

INSERT INTO assay_data (molecule_smiles, obs_value) VALUES
  ('CN(C1=Nc2ccccc2CS1)C1CCN(CCCCCOCc2ccc(F)c(F)c2)CC1.O=C(O)/C=C/C(=O)O', 169),
  ('COc1ccc(COCCCCN2CCC(N(C)C3=Nc4ccccc4CS3)CC2)cc1.O=C(O)/C=C/C(=O)O', 165),
  ('CN(C1=Nc2ccccc2CS1)C1CCN(CCCCOCCc2ccc(F)c(F)c2)CC1.O=C(O)/C=C/C(=O)O', 163),
  ('COc1ccc(CCOCCCN2CCC(N(C)C3=Nc4ccccc4CS3)CC2)cc1.O=C(O)/C=C/C(=O)O', 155),
  ('CN(C1=Nc2ccccc2CS1)C1CCN(CCCOCCc2ccccc2)CC1.O=C(O)/C=C/C(=O)O', 166);

Each recorded value in this set is attributed to patent US6531469B1.
